# maps each entry to its protein stability index
# assayProcedure: protein stability index of a GFP-peptide fusion (yeast GPS) (PSI 1-4); higher = more stable; sorted into four equal gates, so the index is relative within each strain
# conditionDescription: ubr1∆

[
  {
    "sequenceText": "MVGLVDPDKLKPNDLVG [RPT5]",
    "protein stability index": 2.75
  },
  {
    "sequenceText": "PAKVEDVQKSSDSSSED [YLR335W/NUP2]",
    "protein stability index": 1.65
  },
  {
    "sequenceText": "ISKRKEELEEEFRKKLK [YIL149C/MLP2]",
    "protein stability index": 3.67
  },
  {
    "sequenceText": "NPYNTRSNKIKVVKTPG [RPL34A]",
    "protein stability index": 2.15
  },
  {
    "sequenceText": "KKIGCYMFANLEFSIYH [CSN12]",
    "protein stability index": 2.51
  },
  {
    "sequenceText": "FLFAPELGAINLHALSM [SWI1]",
    "protein stability index": 2.17
  },
  {
    "sequenceText": "QKNDTAAFKDIAKRQFK [RRP40]",
    "protein stability index": 3.35
  },
  {
    "sequenceText": "PFREFLQVLIDQLDSEA [ECM29]",
    "protein stability index": 3.01
  },
  {
    "sequenceText": "IGSQRGRRLSMLASQAN [DSN1]",
    "protein stability index": 2.18
  },
  {
    "sequenceText": "NPEEVEQVAEEAAAAEE [RPS0B]",
    "protein stability index": 3.26
  },
  {
    "sequenceText": "DLSEKILNDIETLEHNP [BRR2]",
    "protein stability index": 3.13
  },
  {
    "sequenceText": "DKPLLKAGRAFHKYRLK [RPL2A]",
    "protein stability index": 2.04
  },
  {
    "sequenceText": "NIKLLNNRMGSYDCTGV [POP1]",
    "protein stability index": 3
  },
  {
    "sequenceText": "SLQNNLQNNINNSNNNN [SNF11]",
    "protein stability index": 3.29
  }
]
